These entries and their values trace back to patent US11603350B2.

experiment: Solubility measurement in ethyl methyl ketone; type: physicochemical; conditions: concentration in ethyl methyl ketone solution where the compound was completely dissolved
measurement-type: Solubility (% by mass)
Just the number in % by mass, nothing appended.

1) C=CC(=O)OCCCCOc1ccc(C#Cc2ccc(NC(=O)c3ccc(OCCCCOC(=O)C=C)cc3)cc2C)cc1    19

IN: Sample C=CC(=O)OCCCCOc1ccc(C#Cc2ccc(NC(=O)c3ccc(OCCCCOC(=O)C=C)cc3)c(C(F)(F)F)c2)cc1 — what was its Solubility?
OUT: 38

IN: Which Solubility value is on record for C=CC(=O)OCCCCOc1ccc(C#Cc2ccc(C(=O)Nc3ccc(C#Cc4ccc(OCCCCOC(=O)C=C)cc4)cc3C(F)(F)F)cc2)cc1 ?
OUT: 22
